Data provenance is paper PMC9090415.

- Measurement target: P. falciparum apicoplast DNA polymerase (Pf-apPOL) (Plasmodium falciparum)
- Sequence (Q8ILY1 entry or part of it): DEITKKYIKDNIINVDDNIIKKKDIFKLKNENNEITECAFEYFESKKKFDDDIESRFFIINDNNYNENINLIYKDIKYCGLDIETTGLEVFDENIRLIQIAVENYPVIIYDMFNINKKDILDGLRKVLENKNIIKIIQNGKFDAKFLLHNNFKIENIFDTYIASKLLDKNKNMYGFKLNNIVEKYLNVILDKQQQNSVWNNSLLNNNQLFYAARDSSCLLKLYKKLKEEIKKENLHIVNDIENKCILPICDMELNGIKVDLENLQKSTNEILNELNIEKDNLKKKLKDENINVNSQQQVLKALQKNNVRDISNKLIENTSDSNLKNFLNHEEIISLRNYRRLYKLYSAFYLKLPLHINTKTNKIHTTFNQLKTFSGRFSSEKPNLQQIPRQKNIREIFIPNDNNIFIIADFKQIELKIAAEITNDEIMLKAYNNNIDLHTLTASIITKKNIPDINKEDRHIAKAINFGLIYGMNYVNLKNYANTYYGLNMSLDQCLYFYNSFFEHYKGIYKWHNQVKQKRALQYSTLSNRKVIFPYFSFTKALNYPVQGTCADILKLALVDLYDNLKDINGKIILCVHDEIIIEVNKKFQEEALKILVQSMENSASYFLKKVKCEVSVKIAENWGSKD
- Test details: Fluorescence-based high-throughput DNA polymerase assay (molecular beacon), primary screen and dose-response
- Format: biochemical
- Experimental setup: DRC-1; concentration 80 (unit not given); 10'
Reported endpoint: % inhibition Apo pol 10' (%)
Just the number in %, nothing appended.

Compound	% inhibition Apo pol 10' [%]
O=C(O)c1cc([N+](=O)[O-])c(N2CCN(c3cccc(C(F)(F)F)c3)CC2)c([N+](=O)[O-])c1	98.3006
O=C1c2ccccc2C(=O)c2c1oc1c3c(ccc21)OCN(C1CCCC1)C3	89.3485
Cc1ccnc(NS(=O)(=O)c2ccc(-n3cccc3)cc2)n1	93.2113
CCc1ccccc1NC(=O)c1ccc(-c2ncccc2NC(C)=O)cc1	89.6121
Nc1ncnc(NC2CCCCC2)c1[N+](=O)[O-]	70.2616

In plain terms, O=C(Cc1cccs1)N1CCN(c2nc(CN3CCOCC3)cs2)CC1 has a documented % inhibition Apo pol 10' of 83

In plain terms, Cc1cc(C)nc(Nc2nc(CC(=O)Nc3nc(-c4ccco4)cs3)cs2)n1 has a documented % inhibition Apo pol 10' of 83.354

In plain terms, COc1ccc(NC(=O)Cn2nc3c(cc2=O)CCC3)cc1Cl has a documented % inhibition Apo pol 10' of 89

In plain terms, O=C(Nc1c2c(nn1-c1ccccc1)CSC2)c1ccco1 has a documented % inhibition Apo pol 10' of 92.3383

In plain terms, O=[N+]([O-])c1ccc(SCc2ccco2)c2cccnc12 has a documented % inhibition Apo pol 10' of 92.5619

In plain terms, COc1ccc(-c2occ(C(=O)O)c2C(=O)O)cc1 has a documented % inhibition Apo pol 10' of 93.5468

In plain terms, O=C(O)c1nc(-c2ccccc2)nc2c1OCO2 has a documented % inhibition Apo pol 10' of 95.8219

In plain terms, COc1ccc(C=C2Oc3c(ccc4c3CN(Cc3ccco3)CO4)C2=O)c(OC)c1 has a documented % inhibition Apo pol 10' of 73.935

In plain terms, CCCCCc1c2c(cc(O)c1C(=O)O)OC(=O)c1c(cc(OC)cc1C(=O)CCCC)O2 has a documented % inhibition Apo pol 10' of 96.1248

In plain terms, Cc1ccc(C2=N/C(=C\c3ccc(I)o3)C(=O)O2)cc1[N+](=O)[O-] has a documented % inhibition Apo pol 10' of 80.4424

In plain terms, CCOc1ccc2cc(C3=NN(C(=O)CCC(=O)O)C(c4ccc(C)cc4)C3)c(=O)[nH]c2c1 (stereo not shown) has a documented % inhibition Apo pol 10' of 88.576
